In this section we review reported melting point values for a set of compounds.

Use the examples below as a reference point.
COMPOUND: N#CCOc1ccc2cc(-c3ccc(-c4ccccc4)[nH]3)ccc2c1
melting point: 142 °C
//
COMPOUND: CCN1c2ncc(CCc3ccncc3)cc2C(=O)N(C)c2ccc(Cl)nc21
melting point: 158 to 159 °C
//
COMPOUND: Nc1ncnc2c1ncn2[C@@H]1O[C@H](CSCCO)[C@@H](O)[C@H]1O
melting point: 198 to 201 °C

Dear colleague, I am looking for the recorded melting point of the following compound: COC(=O)c1ccc2cc(C(C)n3ccnc3)ccc2c1 (stereo unspecified)
103 to 106 °C

Proceed to O=C1Nc2ccccc2Sc2ncccc21
260 to 261 °C

Proceed to CC(=CC(=O)c1ccc(Cl)cc1)N(C)C
103 to 105 °C

Proceed to CCn1c(=O)n(O)c(=O)c2cc(F)c(N3CCNCC3)cc21
206 to 208 °C

Proceed to CCC1(c2ccccc2)Cc2cc(OCC(=O)O)c(Cl)c(Cl)c2C1=O (stereo unspecified)
187 to 189 °C

Proceed to O=C(O)CCCCCCCCCCc1ccc(Br)cc1
91 °C

Proceed to CS(=O)(=O)OCC(Oc1ccc(F)c(C(N)=O)c1F)c1nc(-c2ccc(C(F)(F)F)cc2)c(Cl)o1 (stereo unspecified)
163 °C

Proceed to COCCc1ccc(OCC(O)C(C)(C)[N+](=O)[O-])cc1 (stereo unspecified)
92 to 94 °C

====

PROPERTY LABEL: melting point

Use the examples below as a reference point.
MOLECULE: [N-]=[N+]=NC1=CN(CC(F)(F)F)c2ccccc2C(c2ccccc2)=N1
melting point: 159 to 160 °C
--
MOLECULE: CCOCCOc1cc(C(C)C)c(NC(=O)CN2CCN(CCCSc3nc4ccccc4o3)CC2)c(C(C)C)c1
melting point: 115 to 117 °C

Dear colleague, I am looking for the recorded melting point of the following molecule: CNC(=O)c1ccccc1Nc1nc(Nc2ccc3c(c2)CNC(=O)CCN3)ncc1Cl
267 to 268 °C

Proceed to CC(C)c1cccc(C(C)C)c1NC(=O)CC(=O)C1(c2ccccc2)CCCC1
145 to 147 °C

Proceed to CCOC(=O)Cc1sc(Sc2cccc(C(=O)OCC)n2)nc1C
73 to 75 °C

Proceed to O=C(O)CC1CCCc2c1[nH]c1ccc(F)cc21 (stereo unspecified)
124 to 126 °C

====

In this section we review reported melting point values for a set of molecules.

MOLECULE: O=C(O)c1cc(F)c(F)c(Br)c1Cl
melting point: 138 to 140 °C

MOLECULE: Cn1c(COc2ccc(CC3SC(=O)NC3=O)cc2)nc2ccc(Oc3ccc(NC(=O)Nc4cccc5ccccc45)cc3)cc21 (centres undefined)
melting point: 211 to 214 °C

Dear colleague, I am looking for the recorded melting point of the following molecule: COC(=O)NC1=NCC(c2ccc(F)cc2)N1C (centres undefined)
153 to 155 °C

====

PROPERTY LABEL: melting point

COMPOUND: CCOC(=O)Cc1cccc2c(-c3ccccc3)onc12
melting point: 97 to 98 °C

COMPOUND: c1ccc2c(c1)Cn1cccc1CN2
melting point: 145 to 148 °C

COMPOUND: O=C(O)CN1C(=O)C(NC(=O)Nc2cccc3ccccc23)CCc2ccccc21 (stereo not drawn)
melting point: 215 to 216 °C

COMPOUND: N#CCN1CCC(OC(c2ccccc2)c2ccccc2)CC1
melting point: 78 to 80 °C

COMPOUND: COc1ccc(S(=O)(=O)C(CCCCc2ccccc2)C(=O)O)cc1OC (stereo not drawn)
melting point: 114 to 116 °C

Dear colleague, I am looking for the recorded melting point of the following compound: COc1ccc(CNc2ncc3c(n2)N(c2ccccc2)C(=O)N(c2c(Cl)cccc2Cl)C3)cc1
56 °C

Proceed to COc1ccc(-c2cc(=O)c3c(O)cc(OCC4=COC(C)(C)O4)cc3o2)cc1OCC1=COC(C)(C)O1
155 to 156 °C

Proceed to CC1(C)CC(=O)Nc2cc3nc(-c4ccc(OS(C)(=O)=O)cc4)[nH]c3cc21
209 to 215 °C

Proceed to CNc1nc(Cl)c(OC(F)F)c(N(C)C)n1
127 to 130 °C

Proceed to Oc1cccc(OCCn2ccnc2)c1
125 to 127 °C

Proceed to Cc1c(CC(=O)OCCCO)cc(-c2ccc(S(C)(=O)=O)cc2)n1-c1ccccc1
108 to 110 °C

Proceed to O=C(CC1C(=S)Nc2ccccc21)NCc1ccccc1 (stereo not drawn)
193 to 195 °C

Proceed to CC(C)C(c1cccc(NC(=O)OCc2ccccc2)c1)c1c(O)c2c(oc1=O)CCCCCC2 (stereo not drawn)
96 to 101 °C

====

In this section we review reported melting point values for a set of compounds.

Use the examples below as a reference point.
COMPOUND: O=C(/C=C/c1ccc(OC(F)(F)F)cc1)/C=C/c1ccc(C(F)(F)F)cc1
DATA VALUE: 97 to 99 °C

COMPOUND: O=C1NCC(C(=O)NCCO[N+](=O)[O-])S1 (stereo not given)
DATA VALUE: 114 to 115 °C

COMPOUND: CCOC(=O)c1cncc(C#N)c1
DATA VALUE: 58 to 59 °C

COMPOUND: COC(=O)CCCN1CCC(NC(=O)c2ccccc2)CC1
DATA VALUE: 116 °C

COMPOUND: C=CCc1c(O)c(Cl)c(Cl)c2c1CC(C)(c1ccccc1)C2=O (stereo not given)
DATA VALUE: 125 °C

We now examine a further compound.
Dear colleague, I am looking for the recorded melting point of the following compound: COc1ccc(Oc2c(SCc3ccccc3)cc(C(=O)O)cc2S(N)(=O)=O)cc1
215 to 216 °C

====

In this section we review reported melting point values for a set of compounds.

Use the examples below as a reference point.
COMPOUND: Cc1nc2cc(NC(=O)c3cc4cccnc4n3Cc3cccc(F)c3)ccc2n1C
melting point: 242 to 244 °C
--
COMPOUND: COc1cc(CCCN(C)Cc2ccc(OC)c(OC)c2)ccc1NC(=O)c1cccc2c(=O)c3cccc(OC)c3[nH]c12
melting point: 105 °C
--
COMPOUND: Clc1cc(Cl)c2nc3c4ccccc4c4ccccc4c3nc2c1
melting point: 221 to 222 °C
--
COMPOUND: O=c1[nH]cnn1-c1ccc(C(F)(F)F)cc1
melting point: 221 °C
--
COMPOUND: C(#CCN(Cc1ccccc1)Cc1ccccc1)CN(Cc1ccccc1)Cc1ccccc1
melting point: 105 to 106 °C

We now examine a further compound.
Dear colleague, I am looking for the recorded melting point of the following compound: N#Cc1ccc(CCn2ccn(C3CCc4ccccc4C3)c2=S)cc1 (stereo unspecified)
169 to 170 °C

====

In this section we review reported melting point values for a set of compounds.
Reply numerically in °C, unit not repeated.

COMPOUND STRUCTURE STRING: Cc1cc(C)c2cccc(OCc3c(Cl)ccc(S(=O)(=O)N4CCC[C@H]4C(=O)N4CCN(C(=O)c5ccc(C(N)=NO)cc5)CC4)c3Cl)c2n1
melting point / °C: 161
//
COMPOUND STRUCTURE STRING: NS(=O)(=O)c1cc(C(=O)Nn2cnc3cc(C(F)(F)F)ccc32)ccc1Cl
melting point / °C: 164
//
COMPOUND STRUCTURE STRING: CCN(CC)S(=O)(=O)c1cc2c(c(C(=O)NCc3ccccc3)c1)OCCO2
melting point / °C: 125

Dear colleague, I am looking for the recorded melting point of the following compound: CC(C)C[C@H]1[C@@H](O)C(=O)N1C(=O)OC(C)(C)C
108

====

In this section we review reported melting point values for a set of compounds.

Use the examples below as a reference point.
COMPOUND: O=C1c2ccccc2C(=O)N1OCc1cc(=O)c(OCc2ccccc2)co1
DATA VALUE: 172 °C

COMPOUND: CCNC(=O)c1cccc(C(F)(F)F)c1
DATA VALUE: 98 to 99 °C

COMPOUND: Brc1c[nH]nc1-c1ccccc1
DATA VALUE: 114 to 116 °C

COMPOUND: CC(=NO)c1ncc(C)nc1C
DATA VALUE: 85 to 89 °C

COMPOUND: CC(=O)Nc1ccc(NC(=O)c2ccc3c(c2)NC(=O)C3(C)C)cc1
DATA VALUE: 294 to 295 °C

COMPOUND: CCOC(=O)Cn1c(=O)sc2ccc(C3=NNC(=O)NC3C)cc21 (centres undefined)
DATA VALUE: 200 to 202 °C

Dear colleague, I am looking for the recorded melting point of the following compound: NC(=O)c1ccc([N+](=O)[O-])c(N2CC2)c1
223 to 224 °C

Proceed to CC(C)(C)OC(=O)N1CCCC(Nc2cc(-c3ccc(F)c(NC(=O)c4cnc(C(C)(C)C)cn4)c3)n[nH]c2=O)C1 (centres undefined)
120 to 121 °C

Proceed to O=c1c2cccc(O)c2nc(-c2ccc(O)cc2)n1-c1ccc(OCCCl)cc1
274 to 276 °C

Proceed to Fc1cccc(Cl)c1-c1c(Cl)cc(-c2ncccn2)nc1Cl
147 °C

Proceed to CCOCc1nc2c(N)nc3cc(NS(=O)(=O)CC)ccc3c2n1CC(C)(C)O
124 to 127 °C
